Data origin: patent US8686130B2

experiment: Fluorescence characteristics of base analog nucleosides; type: physicochemical; details: deoxyribonucleoside derivative
Measured endpoint: Molar absoption coefficient ε (M⁻¹ cm⁻¹)
Report the value in M⁻¹ cm⁻¹ with no unit label.

| Smiles structure | Measured endpoint | Observed result |
| --- | --- | --- |
| Nc1nc(-c2ccc(-c3ccc(-c4cccs4)s3)s2)c2ncn([C@H]3C[C@H](O)[C@@H](CO)O3)c2n1 | Molar absoption coefficient ε | 44800 |
| OC[C@H]1O[C@@H](n2ccc3c(-c4ccc(-c5nccs5)s4)ccnc32)C[C@@H]1O | Molar absoption coefficient ε | 21500 |
| OC[C@H]1O[C@@H](n2cnc3c(-c4ccc(-c5cccs5)s4)ccnc32)C[C@@H]1O | Molar absoption coefficient ε | 32500 |

# context switch: different molecule, same Molar absoption coefficient ε
Exercise: Quick check: Molar absoption coefficient ε of OC[C@H]1O[C@@H](n2ccc3c(-c4ncc(-c5cccs5)s4)ccnc32)C[C@@H]1O ?
Solution: 27000
